# target-under-test: glycosylated human PAI-1 (active form) (human, UniProt P05121 24-402, glycosylated)
# Sequence (P05121 24-402 limits assumed): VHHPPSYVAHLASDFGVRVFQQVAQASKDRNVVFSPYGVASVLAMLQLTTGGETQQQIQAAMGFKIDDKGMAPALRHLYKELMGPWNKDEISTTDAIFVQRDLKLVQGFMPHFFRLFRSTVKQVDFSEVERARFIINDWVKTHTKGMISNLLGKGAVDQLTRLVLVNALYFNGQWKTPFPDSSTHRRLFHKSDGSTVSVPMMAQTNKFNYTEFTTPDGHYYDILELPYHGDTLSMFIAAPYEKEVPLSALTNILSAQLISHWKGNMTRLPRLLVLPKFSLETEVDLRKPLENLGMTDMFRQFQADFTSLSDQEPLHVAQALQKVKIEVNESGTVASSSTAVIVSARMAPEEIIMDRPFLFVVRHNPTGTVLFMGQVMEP
# experiment: cell-based or functional assay
Form field: plasmin generation, hepatic stellate cells, IC50abs (one value per entry).
quantity-kind: plasmin generation, hepatic stellate cells, IC50abs (nM)

binder: A44 (antibody, mouse IgG1, V domains shown, mouse IgG1/kappa; also called mA44; A44 parental) VH: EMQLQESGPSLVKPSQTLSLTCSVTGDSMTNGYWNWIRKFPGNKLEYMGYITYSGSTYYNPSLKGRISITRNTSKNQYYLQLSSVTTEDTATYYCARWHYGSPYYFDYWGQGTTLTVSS VL: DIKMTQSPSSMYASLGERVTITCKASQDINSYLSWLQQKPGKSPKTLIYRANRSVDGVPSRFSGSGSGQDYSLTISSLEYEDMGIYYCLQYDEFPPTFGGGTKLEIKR
quantitative-readout: 3.32
--
binder: B28 (antibody, mouse IgG2b, V domains shown, mouse IgG2b/kappa; also called mB28; B28 (IgG2b/k)) VH: QVQLQQSGAELMKPGASVKISCKATGYTFSISWIEWIKQRPGGLEWIGKILPGSGGANYNEKFKGKATVTADTSSNTVYMQLSSLTSEDSAVYYCARLSTGTRGAFDYWGQGTTLTVSS VL: DIQLTQSPASLSASVGATVTITCRASENVYSYLAWYQQKQGKSPQLLVYNAKTLAEGVPSRFSGSGSGTQFSLKINYLQPEDFGSYYCQHHYGTPPTFGGGTKVEIKR
quantitative-readout: 7.28
--
binder: C45 (antibody, mouse IgG2b, V domains shown, mouse IgG2b; also called mC45; C45 (IgG2b)) VH: QVQLQQSGVELVRPGTSVKVSCKASGYAFTNYLIEWIKQRPGQGLEWIGVIHPGSGVTNYNEKFKGKAILTADKSSSTAYMQLSSLTSDDSAVYFCARDYYGSSHGLMDYWGQGTSVTVSS VL: DIKMTQSPSSMYASLGERVTITCKASQDINSYLSWFQQKPGKSPKTLIYRANRLVDGVPSRFSGSGSGQDYSLTISSLEYEDMGIYYCLQYDEFPRTFGGGTKLEIK
quantitative-readout: 6.5

Origin of the recorded values: patent US20160200831A1
